Molecular target: TARP γ8 dependent AMPA receptor (GluA1o-g8 fusion channel) (Homo sapiens (Human), UniProt P42261+Q8WXS5)
Sequence (P42261 other isoform, or with tags, fused parts or gaps): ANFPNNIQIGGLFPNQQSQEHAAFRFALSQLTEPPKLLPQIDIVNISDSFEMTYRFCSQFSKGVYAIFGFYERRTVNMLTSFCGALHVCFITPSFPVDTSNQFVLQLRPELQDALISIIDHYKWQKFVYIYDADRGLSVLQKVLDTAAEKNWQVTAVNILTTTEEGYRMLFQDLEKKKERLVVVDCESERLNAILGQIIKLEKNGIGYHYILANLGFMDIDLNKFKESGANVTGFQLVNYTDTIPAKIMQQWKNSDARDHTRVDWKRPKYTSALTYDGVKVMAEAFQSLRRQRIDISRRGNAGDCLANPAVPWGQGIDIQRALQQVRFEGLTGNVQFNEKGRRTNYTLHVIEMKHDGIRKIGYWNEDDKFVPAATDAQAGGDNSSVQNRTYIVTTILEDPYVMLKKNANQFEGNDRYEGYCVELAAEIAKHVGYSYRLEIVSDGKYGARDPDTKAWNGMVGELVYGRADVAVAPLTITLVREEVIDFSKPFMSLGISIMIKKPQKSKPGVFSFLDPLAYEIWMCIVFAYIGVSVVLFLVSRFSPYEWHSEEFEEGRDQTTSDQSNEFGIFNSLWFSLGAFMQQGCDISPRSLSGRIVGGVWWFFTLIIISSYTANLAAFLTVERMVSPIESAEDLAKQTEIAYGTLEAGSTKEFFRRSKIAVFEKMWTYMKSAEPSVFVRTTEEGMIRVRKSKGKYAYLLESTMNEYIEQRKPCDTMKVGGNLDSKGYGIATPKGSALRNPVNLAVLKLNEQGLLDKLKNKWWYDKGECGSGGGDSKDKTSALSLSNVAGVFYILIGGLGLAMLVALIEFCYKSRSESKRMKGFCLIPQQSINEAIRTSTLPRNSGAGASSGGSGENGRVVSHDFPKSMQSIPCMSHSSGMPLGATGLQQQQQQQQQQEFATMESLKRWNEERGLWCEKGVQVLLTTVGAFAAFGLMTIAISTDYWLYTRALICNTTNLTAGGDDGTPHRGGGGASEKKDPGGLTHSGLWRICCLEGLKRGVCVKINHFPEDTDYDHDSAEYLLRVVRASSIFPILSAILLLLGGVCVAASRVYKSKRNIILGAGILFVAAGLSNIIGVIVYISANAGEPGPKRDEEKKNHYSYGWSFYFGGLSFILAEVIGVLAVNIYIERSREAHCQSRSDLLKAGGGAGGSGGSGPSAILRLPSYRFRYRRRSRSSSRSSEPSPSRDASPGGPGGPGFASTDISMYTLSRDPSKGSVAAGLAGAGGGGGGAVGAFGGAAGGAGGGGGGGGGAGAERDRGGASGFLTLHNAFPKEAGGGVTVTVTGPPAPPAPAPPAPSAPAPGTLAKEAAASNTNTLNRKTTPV
Test: Calcium flux assay (FLIPR), HEK293 cells expressing GRIA1o-CACNG8 fusion
Assay type: cell-based
Details: inhibition of calcium flux after 15 μM glutamate, read-out: GluR1-γ8 pIC50 (converted)
Text: This assay was used to test compounds for their ability to inhibit TARP γ8 dependent AMPA receptor activity. An in vitro assay was used to determine the potency of test compounds as inhibitors of the glutamate response of the channel formed by GluA1o-g8. To ensure a 1:1 stoichiometry of GluA1o and g8 subunits in the expressed channel, a fusion of the cDNAs for GRIA1o and CACNG8 was used. […] The fluorescence in each well was normalized to the fluorescence of negative and positive control wells. […]
Each item that follows carries a reported IC50.
METRIC_NAME: IC50 (µM)

INSERT INTO measurements (compound, experimental_value) VALUES
  ('O=c1[nH]c2ccc(-c3c(Cl)cccc3C(F)(F)F)cc2[nH]1 [Example 12]', 0.631),
  ('COc1cccc(OCC(F)(F)F)c1-c1ccc2[nH]c(=O)[nH]c2c1 [Example 103]', 0.398),
  ('O=c1[nH]c2ccc(-c3cccc(OCC(F)F)c3Cl)cc2[nH]1 [Example 112]', 0.126);
